# key: entry, value: OD450 nm
Target: T1, hSEMA4D ECD-His (His-tagged human SEMA4D protein extracellular domain, Met22-Arg734) (human, UniProt Q92854 22-734)
T1 construct: Expressed in CHO-S cells, purified on Ni column; also called protein immunogen; immunogen A; not shown: His tag of the pCP vector
T1 sequence: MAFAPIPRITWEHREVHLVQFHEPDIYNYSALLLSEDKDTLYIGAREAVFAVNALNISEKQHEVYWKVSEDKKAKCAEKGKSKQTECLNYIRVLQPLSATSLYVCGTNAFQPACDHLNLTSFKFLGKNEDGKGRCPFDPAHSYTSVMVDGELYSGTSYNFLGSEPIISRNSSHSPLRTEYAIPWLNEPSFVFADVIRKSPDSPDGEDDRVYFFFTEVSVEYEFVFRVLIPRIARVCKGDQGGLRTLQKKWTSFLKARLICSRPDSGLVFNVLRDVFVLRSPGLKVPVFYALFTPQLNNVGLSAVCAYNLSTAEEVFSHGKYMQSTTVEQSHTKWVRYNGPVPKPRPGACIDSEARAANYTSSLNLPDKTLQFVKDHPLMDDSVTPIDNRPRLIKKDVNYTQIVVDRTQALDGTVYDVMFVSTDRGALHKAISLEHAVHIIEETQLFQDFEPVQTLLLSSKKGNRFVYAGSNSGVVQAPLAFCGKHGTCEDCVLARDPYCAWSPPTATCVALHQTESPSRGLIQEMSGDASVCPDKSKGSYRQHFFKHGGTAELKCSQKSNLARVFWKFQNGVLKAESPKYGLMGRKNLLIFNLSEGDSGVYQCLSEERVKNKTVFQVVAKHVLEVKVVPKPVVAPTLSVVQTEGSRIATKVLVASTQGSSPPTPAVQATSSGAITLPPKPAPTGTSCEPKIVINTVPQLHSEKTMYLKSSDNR
Experiment: ELISA, coated hSEMA4D ECD-His; Ab 0.267 nM
Field format: numeric only.

binder | OD450 nm
32C8F10 (antibody, V domains shown, Mouse monoclonal antibody purified from hybridoma supernatant on protein A) VH: EVQLQQSGAELVRPGASVKLSCTASGFNIKDEYIHWVKQRPEQGLEWIGWIDPANGHTEYASRFQAKATITADTSSNTAYLQLSSLTSEDTAVYYCTTGDYDGFAYWGQGTLVTVST VL: QIVLTQSPAIMSASPGEKVTISCSARSSVSYMYWYQQKPGSSPKPWIYRTSNLASGVPARFSGSGSGTSYSLTISSMEAEDAATYYCQHYHTYPYTFGGGTKLEIK | 1.28

Query binder follows.
[in] Requested field: OD450 nm. Item: 31G10C5 (antibody, V domains shown, Mouse monoclonal antibody purified from hybridoma supernatant on protein A) VH: EVQLQQSGAELVRPGASVKLSCTASGFNIKDDYIHWVKQRPEQGLEWIGWIDPANGHIEYASNFQAKATITADTSSNTAYLQLSSLTSEDTAVYYCTTGDYDGFTYWGQGTLVTVST VL: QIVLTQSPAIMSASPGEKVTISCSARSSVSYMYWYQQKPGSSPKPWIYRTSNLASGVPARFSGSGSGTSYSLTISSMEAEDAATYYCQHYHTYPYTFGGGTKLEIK
[out] 1.15
